test system: RNA polymerase; test: relative enzymatic activity vs untreated control (fraction); higher = less inhibition; conditions: 100 µM; incubation time: 2 h at 37 C

molecule	relative enzymatic activity
C[C@H]1[C@H](NC(=O)/C(=N\OC(C)(C)C(=O)O)c2csc(N)n2)C(=O)N1S(=O)(=O)O	0.869
CO/N=C1\CN(c2nc3c(cc2F)c(=O)c(C(=O)O)cn3C2CC2)C[C@@H]1CN	0.807
Cn1cc(-c2[nH]c3cc(NC(=O)[C@H](N)C4CCCCC4)cc4c3c2C=NNC4=O)cn1	0.191
COC(=O)N/N=C/c1ccc([N+](=O)[O-])o1	0.918
COC1C=COC2(C)Oc3c(C)c(O)c4c(O)c(c(C=NN5CCN(C)CC5)c(O)c4c3C2=O)NC(=O)C(C)=CC=CC(C)C(O)C(C)C(O)C(C)C(OC(C)=O)C1C (centres undefined)	0.0875
CON=C(C(=O)N[C@@H]1C(=O)N2C(C(=O)O)=C(CSc3nc(=O)c(O)nn3C)CS[C@H]12)c1csc(N)n1	0.524
CN(C)c1cc(CNCC(C)(C)C)c(O)c2c1C[C@H]1C[C@H]3[C@H](N(C)C)C(=O)[C@H](C(N)=O)C(=O)[C@@]3(O)C(=O)[C@@H]1C2=O	0.289
C[C@H]1COc2c(C3(N)CC3)c(F)cc3c(=O)c(C(=O)O)cn1c23	0.861
CN(C)[C@@H]1C(=O)[C@@H](C(N)=O)C(=O)[C@@]2(O)C(=O)[C@@H]3C(=O)c4c(O)c(NC(=O)CN5CCCC5)cc(F)c4C[C@H]3C[C@@H]12	0.118
CN(C)C1C(O)=C(C(N)=O)C(=O)C2(O)C(O)=C3C(=O)c4c(O)cccc4C(C)(O)C3C(O)C12.Cl (centres undefined)	0.177
Cl.O=C1CC2(CCCC2)CC(=O)N1CCCCN1CCN(c2ncccn2)CC1	0.83
CCC=C(C(=O)NC1C(=O)N2C(C(=O)OCOC(=O)C(C)(C)C)=C(COC(N)=O)CSC12)c1csc(N)n1.Cl (centres undefined)	0.977
Cc1cn([C@H]2C[C@H](N=[N+]=[N-])[C@@H](CO)O2)c(=O)[nH]c1=O	0.778
CCn1cc(C(=O)O)c(=O)c2cc(F)c(N3CCNCC3)nc21	0.833
CS(=O)(=O)c1ccc(C(O)C(CF)NC(=O)C(Cl)Cl)cc1 (centres undefined)	0.916
Oc1ccc(Cl)c2cccnc12	0.854
N[C@@H](C(=O)N[C@@H]1C(=O)N2C(C(=O)O)=C(Cl)CC[C@H]12)c1ccccc1	0.811
Cl.N=C(N)n1cccn1	0.787
Cc1cc(C2CCCCC2)n(O)c(=O)c1.NCCO	0.888

* * *

biological target: DNA primase (UniProt P0ABS7); experiment: relative enzymatic activity vs untreated control (fraction); higher = less inhibition; details: 100 µM; incubation time: 2 h at 37 C
Sequence (P0ABS7 whole entry): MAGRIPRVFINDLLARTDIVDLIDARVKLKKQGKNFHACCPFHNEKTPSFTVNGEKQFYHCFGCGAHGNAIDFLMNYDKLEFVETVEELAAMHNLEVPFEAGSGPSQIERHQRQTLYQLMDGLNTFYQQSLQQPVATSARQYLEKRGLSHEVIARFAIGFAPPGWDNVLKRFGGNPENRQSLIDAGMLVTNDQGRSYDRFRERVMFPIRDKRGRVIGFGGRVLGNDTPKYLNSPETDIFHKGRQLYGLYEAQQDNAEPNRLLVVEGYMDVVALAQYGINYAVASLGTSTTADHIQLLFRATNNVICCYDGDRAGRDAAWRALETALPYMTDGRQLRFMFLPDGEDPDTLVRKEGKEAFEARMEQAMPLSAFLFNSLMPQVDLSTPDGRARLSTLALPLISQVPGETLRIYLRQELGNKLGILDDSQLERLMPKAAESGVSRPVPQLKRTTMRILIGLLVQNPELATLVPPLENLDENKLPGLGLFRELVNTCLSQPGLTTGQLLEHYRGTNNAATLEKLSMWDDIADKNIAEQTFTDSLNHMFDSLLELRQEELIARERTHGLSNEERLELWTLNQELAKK

compound	study.target	sign.qualifier	relative enzymatic activity
CO/N=C(\C(=O)N[C@@H]1C(=O)N2C(C(=O)O)=C(CSc3nnnn3C)CS[C@H]12)c1csc(N)n1	DNA primase (UniProt P0ABS7)	=	0.827
CON=C(C(=O)NC1C(=O)N2C(C(=O)[O-])=C(COC(C)=O)CSC12)c1csc(N)n1.[Na+] (configuration not stated)	DNA primase (UniProt P0ABS7)	=	0.68
CN(C)[C@@H]1C(=O)[C@@H](C(N)=O)C(=O)[C@@]2(O)C(=O)[C@@H]3C(=O)c4c(O)c(NC(=O)CN5CCCC5)cc(F)c4C[C@H]3C[C@@H]12	DNA primase (UniProt P0ABS7)	=	0.456
N[C@@H]1CN(c2c(F)cc3c(=O)c(C(=O)O)cn([C@@H]4C[C@@H]4F)c3c2Cl)CC12CC2	DNA primase (UniProt P0ABS7)	=	0.84
CCn1nc(C(=O)O)c(=O)c2cc3c(cc21)OCO3	DNA primase (UniProt P0ABS7)	=	0.744
CC1CN(c2c(F)c(F)c3c(=O)c(C(=O)O)cn(C4CC4)c3c2F)CC(C)N1 (configuration not stated)	DNA primase (UniProt P0ABS7)	=	0.856
O=C1C=CC(=O)N1	DNA primase (UniProt P0ABS7)	=	0.801
COC1=C(OC)C(=O)C(CCCCCCCCCC[P+](c2ccccc2)(c2ccccc2)c2ccccc2)=C(C)C1=O	DNA primase (UniProt P0ABS7)	≤	0
CC[C@H]1OC(=O)[C@H](C)[C@@H](O[C@H]2C[C@@](C)(OC)[C@@H](O)[C@H](C)O2)[C@H](C)[C@@H](O[C@@H]2O[C@H](C)C[C@H](N(C)C)[C@H]2O)[C@](C)(O)C[C@@H](C)CN(C)[C@H](C)[C@@H](O)[C@]1(C)O	DNA primase (UniProt P0ABS7)	=	0.836
CC(C)(O/N=C(\C(=O)N[C@@H]1C(=O)N2C(C(=O)O)=C(C[N+]3(CCNC(=O)c4ccc(O)c(O)c4Cl)CCCC3)CS[C@H]12)c1csc(N)n1)C(=O)O	DNA primase (UniProt P0ABS7)	=	0.753
C=C1c2cccc(O)c2C(=O)C2=C(O)C3(O)C(=O)C(C(N)=O)=C(O)C(N(C)C)C3C(O)C12.Cl (configuration not stated)	DNA primase (UniProt P0ABS7)	=	0.399
C=CC1=C(C(=O)O)N2C(=O)[C@@H](NC(=O)/C(=N\OCC(=O)O)c3csc(N)n3)[C@H]2SC1	DNA primase (UniProt P0ABS7)	=	0.662

# credit: the supplement of paper PMC9446081
